Recorded values, source paper PMC5589090.

conditionDetails: human, po, 0.01 mg/kg
endpointName: Cmax

Request: Fill in: Cmax of Nc1ncn([C@H]2C[C@H](O)[C@@H](CO)O2)c(=O)n1 is ___
Response: ≤ 0.74 nM

---

measurementDescription: Decitabine plasma pharmacokinetics by LCMS/MS after first oral THU-decitabine dose
Format: in vivo, human
conditionDetails: human, plasma, po, decitabine plasma concentration, Cmax, oral decitabine […] (cohort 5) 60 min after oral THU 10 mg/kg; first dose; at 2 hours
endpointName: Cmax

Request: Fill in: Cmax of Nc1ncn([C@H]2C[C@H](O)[C@@H](CO)O2)c(=O)n1 [decitabine, 5-aza-2’-deoxycytidine] is ___
Response: ~50 nM

---

measurementDescription: Decitabine plasma pharmacokinetics by LCMS/MS after first oral THU-decitabine dose
Type: in vivo, human
conditionDetails: read-out: decitabine plasma concentration, Cmax; oral decitabine […] (cohort 5) 60 min after oral THU 10 mg/kg; first dose; at 2 hours
endpointName: Cmax

Request: Fill in: Cmax of Nc1ncn([C@H]2C[C@H](O)[C@@H](CO)O2)c(=O)n1 is ___
Response: 39 to 54 nM

---

measurementDescription: Decitabine plasma pharmacokinetics by LCMS/MS after first oral THU-decitabine dose
Format: in vivo, human
conditionDetails: human, plasma, po, decitabine plasma concentration, Cmax, oral decitabine 0.08 mg/kg (cohort 4) 60 min after oral THU 10 mg/kg; first dose
endpointName: Cmax

Request: Fill in: Cmax of Nc1ncn([C@H]2C[C@H](O)[C@@H](CO)O2)c(=O)n1 is ___
Response: 9 to 21 nM
